assay: Thermo Scientific Acclaim RSLC 120 C18, 100 × 2.1 mm, 2.2 µm, 30 °C; A: 90% water + 10% methanol + 0.01% formic acid + 5 mM ammonium formate; B: methanol + 0.01% formic acid + 5 mM ammonium formate; gradient (min/%B) 0.1/1 3/39 14/99.9 16/99.9; conditions: stereoisomer not certain
Known LC retention time of a selection of molecules
endpoint: LC retention time

>>> reading("COc1ccc(NS(=O)(=O)c2ccc(N)cc2)nn1")
"4.38 min"
>>> reading("Cc1ccc(C(=O)C(C)N2CCCC2)cc1 (configuration not stated)")
"4.76 min"
>>> reading("CCCCCCCC(C)(C)c1ccc(C2CCCC(O)C2)c(O)c1 (configuration not stated)")
"13.5 min"
>>> reading("COC(=O)C1C2CCC(CC1OC(=O)c1ccccc1)N2 (configuration not stated)")
"5.15 min"
>>> reading("CSc1nnc(C(C)(C)C)c(=O)n1N")
"7.07 min"
>>> reading("CCOc1ccc(NC(C)=O)cc1")
"5.93 min"
>>> reading("OC(c1ccccc1)(c1ccccc1)C1CCCCN1 (configuration not stated)")
"5.78 min"
>>> reading("CCOP(=O)(OCC)Oc1ccc([N+](=O)[O-])cc1")
"8.01 min"
>>> reading("CCCCn1c(O)c(C(=O)c2cccc3ccccc23)c2ccccc21")
"13.5 min"
>>> reading("CC12CCC(=O)C=C1CCC1C2C(O)CC2(C)C(C(=O)CO)CCC12 (configuration not stated)")
"8.74 min"
>>> reading("CNC(=O)ON=CC(C)(C)SC")
"6.17 min"
>>> reading("CCOC(=O)CCN(Cc1ccccc1)SN(C)C(=O)ON=C(C)SC")
"10.8 min"
>>> reading("CC(C)(C)NCC(O)c1ccc(O)c(NC(N)=O)c1 (configuration not stated)")
"2.89 min"
>>> reading("CNCC1CCCCC1(O)c1cccc(OC)c1 (configuration not stated)")
"5.3 min"
>>> reading("CC(Cc1ccc(C(C)C(=O)O)cc1)C(=O)O (configuration not stated)")
"6.99 min"
>>> reading("COc1ccccc1OCCNCC(O)COc1cccc2[nH]c3ccccc3c12 (configuration not stated)")
"6.91 min"
>>> reading("CC1(C)OC2COC3(COS(N)(=O)=O)OC(C)(C)OC3C2O1 (configuration not stated)")
"6.08 min"
